- Test system: HLA-A*02:01
- Test protocol: IEDB peptide-MHC binding, purified MHC/direct/fluorescence; filed as Kd, often an IC50 or EC50 that approximates it; bounds were set here for any values at or beyond the usual limits of such assays
- Condition details: source organism: Mycobacterium tuberculosis variant bovis
Measured parameter: Kd

Tested system HLA-A*02:01; Kd recorded for TPREAPYEL was ≥ 20 µM

* * *

- Test system: HLA-B*35:01
- Test protocol: IEDB peptide-MHC binding, purified MHC/competitive/radioactivity; filed as Kd, often an IC50 or EC50 that approximates it; bounds were set here for any values at or beyond the usual limits of such assays
- Condition details: source organism: Vaccinia virus Copenhagen
Measured parameter: Kd

LMDSIFVST yielded Kd of ≥ 77.4 µM

* * *

- Test system: HLA-A*02:01
- Test protocol: IEDB peptide-MHC binding, purified MHC/competitive/fluorescence; filed as Kd, often an IC50 or EC50 that approximates it; bounds were set here for any values at or beyond the usual limits of such assays
- Condition details: source organism: Desulfatibacillum alkenivorans AK-01
Measured parameter: pKd
Reminder that pKd is minus the log10 of a molar concentration.

KLGKAGYVV yielded pKd of 6.42

* * *

- Test system: HLA-A*33:01
- Test protocol: IEDB peptide-MHC binding, purified MHC/competitive/radioactivity; filed as Kd, often an IC50 or EC50 that approximates it; bounds were set here for any values at or beyond the usual limits of such assays
- Condition details: source organism: Mammarenavirus whitewaterense
Measured parameter: Kd (µM)
Numeric answer only, unit µM assumed.

KWMLISSELK yielded Kd of 10.5

* * *

- Test system: HLA-A*30:02
- Test protocol: IEDB peptide-MHC binding, purified MHC/competitive/radioactivity; filed as Kd, often an IC50 or EC50 that approximates it; bounds were set here for any values at or beyond the usual limits of such assays
- Condition details: source organism: Mammarenavirus choriomeningitidis
Measured parameter: Kd

Tested system HLA-A*30:02; Kd recorded for TTDVKAAVI was ≥ 23.7 µM

* * *

- Test system: HLA-B*58:01
- Test protocol: IEDB peptide-MHC binding, purified MHC/direct/fluorescence; filed as Kd, often an IC50 or EC50 that approximates it; bounds were set here for any values at or beyond the usual limits of such assays
- Condition details: source organism: Bacillus anthracis
pKd: −log10 of the molar value.
Can you tell me pKd for the items I'm about to list?

PTDYAKPQY yielded pKd of ≤ 4.70

TPRIANRLL yielded pKd of ≤ 4.70

* * *

- Test system: HLA-A*01:01
- Test protocol: IEDB peptide-MHC binding, purified MHC/competitive/fluorescence; bounds were set here for any values at or beyond the usual limits of such assays
- Condition details: source organism: Vaccinia virus
Measured parameter: IC50 (µM)
Numeric answer only, unit µM assumed.

GTEKEFLRY yielded IC50 of 6.64

* * *

Can you tell me Kd for the items I'm about to list?
- Test system: HLA-A*03:01
- Test protocol: IEDB peptide-MHC binding, purified MHC/direct/fluorescence; filed as Kd, often an IC50 or EC50 that approximates it; bounds were set here for any values at or beyond the usual limits of such assays
- Condition details: source organism: Bacillus anthracis

PTDYAKPQY yielded Kd of ≥ 20 µM

TPRIANRLL yielded Kd of ≥ 20 µM

* * *

- Test system: HLA-B*40:01
- Test protocol: IEDB peptide-MHC binding, purified MHC/competitive/fluorescence; filed as Kd, often an IC50 or EC50 that approximates it; bounds were set here for any values at or beyond the usual limits of such assays
- Condition details: source organism: Bacillus anthracis str. A2012
Measured parameter: pKd
Reminder that pKd is minus the log10 of a molar concentration.

EEISSIISL yielded pKd of 8.64
